// data source = patent US7244767B2

Quick reference: pIC50 of the listed items.
system: EFM-19 cells; assay: Proliferation of human breast carcinoma cells, [3H]-thymidine incorporation, EFM-19; type: cell-based; details: EFM-19, [3H]-thymidine incorporation
pIC50: −log10 of the molar value.
endpoint: pIC50

[[record]]
compound = "CCCCCCCC/C=C\\CCCCCCCC(=O)NCc1ccc(O)c(OC)c1 [Example 1, N-(4-hydroxy-3-methoxybenzyl)oleylamide]"
assaytarget = "EFM-19 cells"
experimentalresult = 6.15

[[record]]
compound = "CCCCC/C=C\\C/C=C\\C/C=C\\C/C=C\\CCCC(=O)NCc1ccc(O)c(OC)c1"
assaytarget = "EFM-19 cells"
experimentalresult = 6.30

[[record]]
compound = "CCCCCCCCCCCCCCCC(=O)NCc1ccc(O)c(OC)c1"
assaytarget = "EFM-19 cells"
experimentalresult = 6.00


###

biological target: cannabinoid receptor CB2 (Rattus norvegicus, UniProt Q9QZN9); construct: endogenous in cells; host or cells: RBL-2H3 rat basophilic leukaemia cells; assay: Binding to cannabinoid receptor CB2, displacement of [3H]WIN55,212-2 on RBL-2H3 cell membranes; settings: read-out: Ki, CB2 receptor, RBL-2H3 + cells, [3H]WIN55,212-2 ligand
Sequence (Q9QZN9 whole entry): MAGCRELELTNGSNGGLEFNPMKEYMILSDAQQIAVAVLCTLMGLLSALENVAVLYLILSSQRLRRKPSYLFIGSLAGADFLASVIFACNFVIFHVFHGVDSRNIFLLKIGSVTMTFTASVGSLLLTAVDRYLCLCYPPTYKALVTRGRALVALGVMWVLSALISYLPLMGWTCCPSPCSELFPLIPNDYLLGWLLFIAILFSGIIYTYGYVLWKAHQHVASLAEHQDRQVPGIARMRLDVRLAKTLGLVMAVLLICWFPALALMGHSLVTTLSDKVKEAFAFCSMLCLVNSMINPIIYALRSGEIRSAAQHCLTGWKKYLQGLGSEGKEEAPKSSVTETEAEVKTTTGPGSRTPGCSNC
endpoint: Ki (nM)

[[record]]
compound = "CCCCCCCCCCCCCCCC(=O)NCCO [N-palmitoylethanolamine, reference compound]"
assaytarget = "cannabinoid receptor CB2 (Rattus norvegicus, UniProt Q9QZN9)"
scaleunit = "nM"
experimentalresult = 1


###

Below, each of the compounds is paired with its reported Ki value.
target: cannabinoid receptor CB2 (Rattus norvegicus); construct: endogenous in cells; host or cells: RBL-2H3 rat basophilic leukaemia cells; assay: Binding to cannabinoid receptor CB2, displacement of [3H]WIN55,212-2 on RBL-2H3 cell membranes; conditions: membranes, 300 pM [3H]WIN55,212-2, 90 min at 30° C.; read-out: Ki, CB2 receptor, RBL-2H3 + cells, [3H]WIN55,212-2 ligand
endpoint: Ki

[[record]]
compound = "CCCCCCCCCCCCCCCC(=O)NCc1ccc(O)c(OC)c1"
experimentalresult = "> 15 µM"

[[record]]
compound = "CCCCC/C=C\\C/C=C\\C/C=C\\C/C=C\\CCCC(=O)NCc1ccc(O)c(OC)c1"
experimentalresult = "> 15 µM"

[[record]]
compound = "CCCCCCCC/C=C\\CCCCCCCC(=O)NCc1ccc(O)c(OC)c1 [Example 1, N-(4-hydroxy-3-methoxybenzyl)oleylamide]"
experimentalresult = "> 15 µM"


###

Reported Ki values are given for each entry in this list.
biological target: cannabinoid receptor CB1 (Mus musculus); construct: endogenous in cells; assay: Binding to cannabinoid receptor CB1, displacement of [3H]SR141716A on N18TG2 cell membranes; conditions: 300 pM [3H]SR141716A, 90 min at 30° C., read-out: Ki, CB1 receptor, N18TG2 + cells, [3H]SR141716A ligand
Sequence (P47746 whole entry): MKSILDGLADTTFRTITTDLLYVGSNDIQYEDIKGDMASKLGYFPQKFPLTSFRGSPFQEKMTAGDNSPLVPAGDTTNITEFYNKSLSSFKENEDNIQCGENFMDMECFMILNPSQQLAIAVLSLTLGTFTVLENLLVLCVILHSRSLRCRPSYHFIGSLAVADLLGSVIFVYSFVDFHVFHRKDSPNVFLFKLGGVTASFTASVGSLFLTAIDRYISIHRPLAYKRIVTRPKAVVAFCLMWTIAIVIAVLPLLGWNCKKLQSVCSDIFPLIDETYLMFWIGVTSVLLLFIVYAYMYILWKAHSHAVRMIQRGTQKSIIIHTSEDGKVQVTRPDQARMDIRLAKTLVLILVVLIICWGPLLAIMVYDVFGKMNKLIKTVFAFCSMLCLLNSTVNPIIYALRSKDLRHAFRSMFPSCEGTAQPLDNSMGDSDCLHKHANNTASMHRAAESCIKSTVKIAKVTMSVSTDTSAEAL
endpoint: Ki (µM)

[[record]]
compound = "COc1cc(CNC(=O)CCCC/C=C/C(C)C)ccc1O [Capsaicin, reference compound]"
limitsign = ">"
experimentalresult = 10

[[record]]
compound = "CCCCCCCC/C=C\\CCCCCCCC(=O)NCc1ccc(O)c(OC)c1 [Example 1, N-(4-hydroxy-3-methoxybenzyl)oleylamide]"
limitsign = "="
experimentalresult = 1.64

[[record]]
compound = "CCCCCCCCCCCCCCCC(=O)NCc1ccc(O)c(OC)c1"
limitsign = "="
experimentalresult = 1.75

[[record]]
compound = "COc1cc(CNC(=O)CCCCCCCC(=O)NCc2ccc(O)c(OC)c2)ccc1O"
limitsign = "="
experimentalresult = 1.2

[[record]]
compound = "CCCCC/C=C\\C/C=C\\C/C=C\\C/C=C\\CCCC(=O)NCc1ccc(O)c(OC)c1"
limitsign = "="
experimentalresult = 1.5

